METRIC: melting point

query: What does the data say about its melting point? Entry: S=c1[nH]nc(-c2ccc3cccnc3c2)n1-c1cccc(Br)c1 [16d]
result: 130 to 131 °C

query: What does the data say about its melting point? Entry: S=c1[nH]nc(-c2ccc3cccnc3c2)n1-c1ccc(Cl)c(Cl)c1 [18d]
result: 133 to 134 °C

query: What does the data say about its melting point? Entry: S=c1[nH]nc(-c2ccc3cccnc3c2)n1-c1ccc(Br)cc1 [17d]
result: 132 to 133 °C

query: What does the data say about its melting point? Entry: Cc1ccc(-n2c(-c3ccc4cccnc4c3)n[nH]c2=S)cc1 [4d]
result: 127 to 128 °C

query: What does the data say about its melting point? Entry: S=c1[nH]nc(-c2ccc3cccnc3c2)n1-c1ccccc1 [1d]
result: 137 to 138 °C (dec.)

query: What does the data say about its melting point? Entry: S=c1[nH]nc(-c2ccc3cccnc3c2)n1-c1ccccc1Cl [12d]
result: 136 to 137 °C

query: What does the data say about its melting point? Entry: Fc1ccc(-n2c(-c3ccc4cccnc4c3)n[nH]c2=S)cc1 [11d]
result: 131 to 132 °C

query: What does the data say about its melting point? Entry: O=[N+]([O-])c1ccccc1-n1c(-c2ccc3cccnc3c2)n[nH]c1=S [5d]
result: 139 to 140 °C

query: What does the data say about its melting point? Entry: S=c1[nH]nc(-c2ccc3cccnc3c2)n1-c1ccc(Cl)cc1 [14d]
result: 131 to 132 °C

query: What does the data say about its melting point? Entry: Fc1ccccc1-n1c(-c2ccc3cccnc3c2)n[nH]c1=S [9d]
result: 129 to 130 °C

query: What does the data say about its melting point? Entry: COc1ccc(-n2c(-c3ccc4cccnc4c3)n[nH]c2=S)cc1 [8d]
result: 134 to 135 °C

query: What does the data say about its melting point? Entry: O=[N+]([O-])c1cccc(-n2c(-c3ccc4cccnc4c3)n[nH]c2=S)c1 [6d]
result: 130 to 131 °C

query: What does the data say about its melting point? Entry: Cc1ccccc1-n1c(-c2ccc3cccnc3c2)n[nH]c1=S [2d]
result: 139 to 140 °C

query: What does the data say about its melting point? Entry: S=c1[nH]nc(-c2ccc3cccnc3c2)n1-c1cccc(Cl)c1 [13d]
result: 141 to 142 °C

query: What does the data say about its melting point? Entry: Cc1cccc(-n2c(-c3ccc4cccnc4c3)n[nH]c2=S)c1 [3d]
result: 136 to 137 °C

query: What does the data say about its melting point? Entry: S=c1[nH]nc(-c2ccc3cccnc3c2)n1-c1ccccc1Br [15d]
result: 135 to 136 °C

query: What does the data say about its melting point? Entry: O=[N+]([O-])c1ccc(-n2c(-c3ccc4cccnc4c3)n[nH]c2=S)cc1 [7d]
result: 127 to 128 °C

query: What does the data say about its melting point? Entry: Fc1cccc(-n2c(-c3ccc4cccnc4c3)n[nH]c2=S)c1 [10d]
result: 128 to 129 °C

----------
Please go through the items and note down their IC50.
Please reply with the bare figure in µM and do not write the unit itself.

query: // map "S=c1[nH]nc(-c2ccc3cccnc3c2)n1-c1ccccc1" to recorded IC50 (system: Porcine pancreatic α-amylase (Sus scrofa))
Sequence (P00690 16-511): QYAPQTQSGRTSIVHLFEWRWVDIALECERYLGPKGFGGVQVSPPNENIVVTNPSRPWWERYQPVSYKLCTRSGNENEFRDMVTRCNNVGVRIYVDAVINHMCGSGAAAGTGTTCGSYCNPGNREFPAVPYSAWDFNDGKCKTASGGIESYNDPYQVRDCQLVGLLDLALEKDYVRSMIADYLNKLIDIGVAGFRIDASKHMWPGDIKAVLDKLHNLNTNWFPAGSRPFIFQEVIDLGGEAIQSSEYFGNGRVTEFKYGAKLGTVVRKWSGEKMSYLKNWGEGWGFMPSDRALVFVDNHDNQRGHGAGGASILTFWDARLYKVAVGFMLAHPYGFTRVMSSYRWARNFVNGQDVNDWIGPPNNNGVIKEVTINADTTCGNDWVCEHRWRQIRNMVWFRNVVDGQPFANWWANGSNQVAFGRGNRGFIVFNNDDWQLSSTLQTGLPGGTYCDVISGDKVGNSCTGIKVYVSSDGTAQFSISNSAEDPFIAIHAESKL
result: 40.2

query: // map "O=[N+]([O-])c1ccc(-n2c(-c3ccc4cccnc4c3)n[nH]c2=S)cc1" to recorded IC50 (system: Porcine pancreatic α-amylase (Sus scrofa))
result: 11.6

query: // map "Cc1cccc(-n2c(-c3ccc4cccnc4c3)n[nH]c2=S)c1" to recorded IC50 (system: Porcine pancreatic α-amylase (Sus scrofa))
result: 32.3

----------
Please go through the items and note down their IC50.
SYSTEM: UniProtKB P00690
The number alone won't do; follow it with the unit.

query: What does the data say about its IC50? Entry: S=c1[nH]nc(-c2ccc3cccnc3c2)n1-c1ccc(-c2ccccc2)cc1 [19d]
result: 18.5 µM

query: What does the data say about its IC50? Entry: S=c1[nH]nc(-c2ccc3cccnc3c2)n1-c1ccc(Br)cc1 [17d]
result: 19.2 µM

query: What does the data say about its IC50? Entry: S=c1[nH]nc(-c2ccc3cccnc3c2)n1-c1cccc(Br)c1 [16d]
result: 31.8 µM

query: What does the data say about its IC50? Entry: S=c1[nH]nc(-c2ccc3cccnc3c2)n1-c1ccccc1Cl [12d]
result: 4.3 µM

query: What does the data say about its IC50? Entry: Fc1ccc(-n2c(-c3ccc4cccnc4c3)n[nH]c2=S)cc1 [11d]
result: 0.8 µM

query: What does the data say about its IC50? Entry: S=c1[nH]nc(-c2ccc3cccnc3c2)n1-c1cccc(Cl)c1 [13d]
result: 14.6 µM

query: What does the data say about its IC50? Entry: S=c1[nH]nc(-c2ccc3cccnc3c2)n1-c1ccc(Cl)cc1 [14d]
result: 6.4 µM

query: What does the data say about its IC50? Entry: Fc1cccc(-n2c(-c3ccc4cccnc4c3)n[nH]c2=S)c1 [10d]
result: 2.1 µM

query: What does the data say about its IC50? Entry: S=c1[nH]nc(-c2ccc3cccnc3c2)n1-c1ccc(Cl)c(Cl)c1 [18d]
result: 1.8 µM

query: What does the data say about its IC50? Entry: S=c1[nH]nc(-c2ccc3cccnc3c2)n1-c1ccccc1Br [15d]
result: 17.2 µM

Data origin: paper PMC9520911
